Data origin: patent US6638919B2

Tested on: CEM cells
ASSAY_NOTES: Toxicity to mock-infected CEM cells (CC50)
Assay type: cell-based
ASSAY_CONDITIONS: Table III; toxicity to CEM cells; read-out: CC50 CEN
ASSAY_METRIC: CC50 (µM)
Numbers only, in µM.

[
  {
    "MOLECULE": "C[C@H](NP(=O)(OC[C@@H]1C=C[C@H](n2cnc3c(NC4CC4)nc(N)nc32)C1)Oc1ccccc1)C(=O)OCc1ccccc1 (stereo partly drawn) [Compound 1582]",
    "UNIT": "µM",
    "RECORDED_VALUE": 12.5
  },
  {
    "MOLECULE": "C[C@H](NP(=O)(OC[C@@H]1C=C[C@H](n2cnc3c(NC4CC4)nc(N)nc32)C1)Oc1ccccc1)C(=O)OC1CCCCC1 (stereo partly drawn) [Compound 1707]",
    "UNIT": "µM",
    "RECORDED_VALUE": 10.2
  },
  {
    "MOLECULE": "CC(C)COC(=O)[C@H](C)NP(=O)(OC[C@@H]1C=C[C@H](n2cnc3c(NC4CC4)nc(N)nc32)C1)Oc1ccccc1 (stereo partly drawn) [Compound 1672]",
    "UNIT": "µM",
    "RECORDED_VALUE": 14.4
  }
]

Your task in this section: give CC50 for each listed record.
1. COC(=O)C[C@H](NP(=O)(OC[C@@H]1C=C[C@H](n2cnc3c(NC4CC4)nc(N)nc32)C1)Oc1ccccc1)C(=O)OC (stereo partly drawn) [Compound 1589]
2. COC(=O)[C@H](Cc1ccccc1)NP(=O)(OC[C@@H]1C=C[C@H](n2cnc3c(NC4CC4)nc(N)nc32)C1)Oc1ccccc1 (stereo partly drawn) [Compound 1585]
3. COC(=O)[C@@H](C)NP(=O)(OC[C@@H]1C=C[C@H](n2cnc3c(NC4CC4)nc(N)nc32)C1)Oc1ccccc1 (stereo partly drawn) [Compound 1583]

Reply |
44.2
36.1
64.3

---

ASSAY_NOTES: Solution stability of salt forms
Assay type: physicochemical
ASSAY_CONDITIONS: HPMC/Tween; % of parent (AUC) after 27 hr at room temperature
Record form. Attribute: Stability (%) HPMC/Tween. Fill in for each entry.
One number for each entry, in %.

Field: example entries. Status: answers known.
[
  {
    "MOLECULE": "CCOC(=O)[C@H](C)NP(=O)(OC[C@@H]1C=C[C@H](n2cnc3c(NC4CC4)nc(N)nc32)C1)Oc1ccccc1.O=C(O)CCCC(=O)O (stereo partly shown)",
    "UNIT": "%",
    "Stability (%) HPMC/Tween": 98.6
  },
  {
    "MOLECULE": "CCOC(=O)[C@H](C)NP(=O)(OC[C@@H]1C=C[C@H](n2cnc3c(NC4CC4)nc(N)nc32)C1)Oc1ccccc1.O=C(O)/C=C/C(=O)O (stereo partly shown)",
    "UNIT": "%",
    "Stability (%) HPMC/Tween": 98.3
  },
  {
    "MOLECULE": "CCOC(=O)[C@H](C)NP(=O)(OC[C@@H]1C=C[C@H](n2cnc3c(NC4CC4)nc(N)nc32)C1)Oc1ccccc1.O=C(O)CCC(=O)O (stereo partly shown)",
    "UNIT": "%",
    "Stability (%) HPMC/Tween": 98.8
  }
]

Now examine the next entry.
Ask | Returns the measured Stability (%) HPMC/Tween for the input molecule. Input: CCOC(=O)[C@H](C)NP(=O)(OC[C@@H]1C=C[C@H](n2cnc3c(NC4CC4)nc(N)nc32)C1)Oc1ccccc1 (stereo partly shown)
Reply | 97.6

---

ASSAY_NOTES: Solid state stability of salt forms
Assay type: physicochemical
ASSAY_CONDITIONS: % of parent (AUC) after two weeks at 60° C.
Assignment: determine reported Solid State Stability (%) for the given molecules.
Give bare numbers, in %.

[
  {
    "MOLECULE": "CCOC(=O)[C@H](C)NP(=O)(OC[C@@H]1C=C[C@H](n2cnc3c(NC4CC4)nc(N)nc32)C1)Oc1ccccc1.O=C(O)CCCC(=O)O (stereo partly shown)",
    "Solid State Stability (%)": 98.9
  },
  {
    "MOLECULE": "CCOC(=O)[C@H](C)NP(=O)(OC[C@@H]1C=C[C@H](n2cnc3c(NC4CC4)nc(N)nc32)C1)Oc1ccccc1 (stereo partly shown)",
    "Solid State Stability (%)": 93.7
  },
  {
    "MOLECULE": "CCOC(=O)[C@H](C)NP(=O)(OC[C@@H]1C=C[C@H](n2cnc3c(NC4CC4)nc(N)nc32)C1)Oc1ccccc1.O=C(O)CCC(=O)O (stereo partly shown)",
    "Solid State Stability (%)": 99.6
  }
]

Okay, now this molecule:
Ask | Given the entry CCOC(=O)[C@H](C)NP(=O)(OC[C@@H]1C=C[C@H](n2cnc3c(NC4CC4)nc(N)nc32)C1)Oc1ccccc1.O=C(O)/C=C/C(=O)O (stereo partly shown) , report its measured Solid State Stability (%).
Reply | 97.1

---

ASSAY_NOTES: Toxicity to mock-infected CEM cells (CC50)
Assay type: cell-based
ASSAY_CONDITIONS: human; Table III; toxicity to CEM cells; read-out: CC50 CEN
Description: Then 100 μL of the infected cell suspension was transferred to microtiter plate wells and mixed with 100 μL of the appropriate dilutions of the test compounds. CC50 CEM: CC50 in μM for toxicity to CEM cells. CC50 CEM: CC50 μM for toxicity to CEM cells
ASSAY_METRIC: CC50 at 4 days (µM)
One number for each entry, in µM.

Ask | Look up CC50 at 4 days for this compound: COC(=O)[C@@H]1CCCN1P(=O)(OC[C@@H]1C=CC(n2cnc3c(NC4CC4)nc(N)nc32)C1)Oc1ccccc1 (stereo partly shown) [Compound 1719]
Reply | 19.4

---

System: HIV-1
ASSAY_NOTES: Inhibition of HIV-1 giant cell formation in CEM cells
Format: cell-based
ASSAY_CONDITIONS: CEM cells, giant cell formation after 4 days; Tables I and II; read-out: EC50/μM HIV-1 CEM
ASSAY_METRIC: EC50 (µM)
Numbers only, in µM.

Ask | What value of EC50 has been reported for the following compound? COC(=O)[C@H](C)NP(=O)(OC[C@@H]1C=C[C@H](n2cnc3c(NC4CC4)nc(N)nc32)C1)Oc1ccccc1 (stereo partly shown)
Reply | 0.07

---

ASSAY_NOTES: Solution stability of salt forms
Format: physicochemical
ASSAY_CONDITIONS: PBS; % of parent (AUC) after 27 hr at room temperature
For each of the compounds below, state its Stability (%) PBS.

Example entries and their recorded answers appear below.
[
  {
    "COMPOUND": "CCOC(=O)[C@H](C)NP(=O)(OC[C@@H]1C=C[C@H](n2cnc3c(NC4CC4)nc(N)nc32)C1)Oc1ccccc1.O=C(O)/C=C/C(=O)O (stereo partly shown) [Example 3]",
    "ASSAY_METRIC": "Stability (%) PBS",
    "RECORDED_VALUE": "98.5%"
  },
  {
    "COMPOUND": "CCOC(=O)[C@H](C)NP(=O)(OC[C@@H]1C=C[C@H](n2cnc3c(NC4CC4)nc(N)nc32)C1)Oc1ccccc1 (stereo partly shown) [Compound 1587]",
    "ASSAY_METRIC": "Stability (%) PBS",
    "RECORDED_VALUE": "98.5%"
  },
  {
    "COMPOUND": "CCOC(=O)[C@H](C)NP(=O)(OC[C@@H]1C=C[C@H](n2cnc3c(NC4CC4)nc(N)nc32)C1)Oc1ccccc1.O=C(O)CCCC(=O)O (stereo partly shown) [Example 4]",
    "ASSAY_METRIC": "Stability (%) PBS",
    "RECORDED_VALUE": "99.9%"
  }
]

In the following, a different compound is considered.
Ask | What value of measured Stability (%) PBS is listed for CCOC(=O)[C@H](C)NP(=O)(OC[C@@H]1C=C[C@H](n2cnc3c(NC4CC4)nc(N)nc32)C1)Oc1ccccc1.O=C(O)CCC(=O)O (stereo partly shown) [Example 1] ?
Reply | 99.8%

---

System: HIV-2
ASSAY_NOTES: Inhibition of HIV-2 giant cell formation in CEM cells
Format: cell-based
ASSAY_CONDITIONS: Human immunodeficiency virus 2, CCRF-CEM; Table III; EC50 for inhibition of HIV-2 in CEM cells; read-out: HIV2 CBM
Description: Then 100 μL of the infected cell suspension was transferred to microtiter plate wells and mixed with 100 μL of the appropriate dilutions of the test compounds. HIV1 CEM: EC50 in μM for inhibition of […] in CEM cells. HIV2 CEM: EC50 in μM for inhibition of HIV-2 in CEM cells
I'd appreciate it if you could supply EC50 values for the items below.
Give bare numbers, in nM.

Known results for molecules:
[
  {
    "MOLECULE": "C[C@H](NP(=O)(OC[C@@H]1C=CC(n2cnc3c(NC4CC4)nc(N)nc32)C1)Oc1ccccc1)C(=O)OCC1CCCC1 (stereo partly drawn)",
    "EC50 (nM)": 480
  },
  {
    "MOLECULE": "COC(=O)C(NP(=O)(OC[C@@H]1C=CC(n2cnc3c(NC4CC4)nc(N)nc32)C1)Oc1ccccc1)C(C)C (stereo partly drawn)",
    "EC50 (nM)": 4000
  }
]

Parameter requested: EC50. Apply to each item below.
1. C[C@H](NP(=O)(OC[C@@H]1C=CC(n2cnc3c(NC4CC4)nc(N)nc32)C1)Oc1ccccc1)C(=O)OCCC(C)(C)C (stereo partly drawn)
2. COC(=O)C(CC(C)C)NP(=O)(OC[C@@H]1C=CC(n2cnc3c(NC4CC4)nc(N)nc32)C1)Oc1ccccc1 (stereo partly drawn)
3. CC(C)CCCOC(=O)[C@H](C)NP(=O)(OC[C@@H]1C=CC(n2cnc3c(NC4CC4)nc(N)nc32)C1)Oc1ccccc1 (stereo partly drawn)
4. CCC(CC)OC(=O)[C@H](C)NP(=O)(OC[C@@H]1C=CC(n2cnc3c(NC4CC4)nc(N)nc32)C1)Oc1ccccc1 (stereo partly drawn)

Reply |
200
1480
140
2000
